Hi there, I'd appreciate the recorded viability for every entry that follows.
experiment: drug combination growth inhibition, ovarian cancer – cell-based, oncology-focused library, rucaparib conditional, profiling panel (AID 1508598); conditions: patient-derived ovarian cancer cells, CellTiter-Glo viability, 144 h; at 5 µM; OCI-P5x cells; with rucaparib 20 µM; active compounds read low; 100% = cells with rucaparib alone
One number for each entry, in %.

{"columns": ["molecule", "measurement-units", "recorded-measurement"],
 "data": [
  ["COc1ccc(-c2ccc3c(N4CCOCC4)nc(N4C[C@@H](C)O[C@@H](C)C4)nc3n2)cc1CO", "%", 48],
  ["CC(/C=C/C(=O)NO)=C\\[C@@H](C)C(=O)c1ccc(N(C)C)cc1", "%", 0.994]
]}

List the reported viability of each molecule below.
1. c1ccc2c(CCNc3ccc(Nc4ccncc4)cc3)c[nH]c2c1
2. NC(=O)c1ccc(I)c([N+](=O)[O-])c1
3. S=C(NCc1ccc2c(c1)OCO2)N1CCN(c2ncnc3c2oc2ccccc23)CC1
4. CCC[C@H](NC(=O)/C(C#N)=C/c1cccc(Br)n1)c1ccccc1

OUTPUT:
78.5
110
101
2.03

====

experiment: viability loss in pontine glioma line – cell-based, SU-DIPG-XVII, MIPE5.0, CellTiter-Glo, qHTS, dose response (AID 1347060); conditions: CellTiter-Glo ATP luminescence;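 as to AC50: cells exposed to compound for 48 hours before viability readout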
Inconclusive results are not listed. Calls of active or inactive are those of the source. The limit is not given here; nearly all actives have AC50 up to about 26 µM.
Write down the outcome that applies. Available outcomes: label 1 = active, label 0 = inactive

{"columns": ["structure-smiles", "group"],
 "data": [
  ["C=C1C[C@H]2C=Nc3cc(OCCCOc4cc5c(cc4OC)C(=O)N4CC(=C)C[C@H]4C=N5)c(OC)cc3C(=O)N2C1", "label 1"],
  ["COc1ccc(S(=O)(=O)NCc2ccc(C(=O)NCCc3ccc(Cl)cn3)cc2)cc1", "label 0"],
  ["CC(=O)N1CCC(Nc2cc(C(=O)NC[C@H](O)CN3CCc4ccccc4C3)ncn2)CC1", "label 0"]
]}

INPUT: What call does the record list for "N#Cc1ccnc(Nc2cc(C3CCN(C4COC4)CC3)cc(N3CCC(F)(F)C3)n2)c1" ?
OUTPUT: label 1

INPUT: What call does the record list for "CNC(=O)c1ccc(N2C(=S)N(c3cnc(C#N)c(C(F)(F)F)c3)C(=O)C23CCC3)cc1F" ?
OUTPUT: label 0

INPUT: What call does the record list for "Cn1cc(C2=C(c3cn(C)c4cc([N+](=O)[O-])ccc34)C(=O)NC2=O)c2ccccc21" ?
OUTPUT: label 1

INPUT: What call does the record list for "CN[C@@H]1C[C@H]2O[C@@](C)([C@@H]1OC)n1c3ccccc3c3c4c(c5c6ccccc6n2c5c31)C(=O)N[C@H]4O" ?
OUTPUT: label 1

INPUT: What call does the record list for "Cc1cc([C@@H](C)Nc2ccccc2C(=O)O)c2nc(N3CCOCC3)cc(=O)n2c1" ?
OUTPUT: label 1

====

Hi there, I'd appreciate the recorded inhibition for every entry that follows.
assay: growth inhibition, single agents and combos, UWB1.289, cell-based, BGB or cisplatin combos, synergistic combos for chromothripsis tumors (AID 1671456); details: UWB1.289 ovarian carcinoma cells, at 0.5 µM, active compounds read high;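 also: cells exposed to compound for four days; 0% = vehicle DMSO and 100% = killing by high DMSO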
Give bare numbers, in %.

List the reported inhibition of each molecule below.
1. O=c1[nH]cnc2ccccc12
2. CC(C)OC(=O)[C@H](C)N[P@](=O)(OC[C@H]1O[C@@H](n2ccc(=O)[nH]c2=O)[C@](C)(F)[C@@H]1O)Oc1ccccc1
3. CCCCc1nc2cc(/C=C/C(=O)NO)ccc2n1CCN(CC)CC
4. O=C(O)[C@H](Cc1c[nH]c2ccccc12)N1C(=O)c2ccccc2C1=O
5. NCCOc1cc(C(=O)Nc2cc(OCCN)c3ccccc3n2)nc(C(=O)Nc2cc(OCCN)c3ccccc3n2)c1

OUTPUT:
1: 2.5; 2: 0.46; 3: 46.9; 4: -10.8; 5: -1.71
